Test system: Caco-2
Test: cell viability relative to DMSO; higher = less toxic
Conditions: 72 h; 100 nM
Could you please report measured cell viability for the items listed next?

{"COMPOUND": "O=c1cc[nH]c(=O)[nH]1 [uracil]", "cell viability": "91.3%"}
{"COMPOUND": "Cc1oc(-c2ccccc2)nc1CCOc1ccc(CC2SC(=O)NC2=O)c2sccc12 (centres undefined) [edaglitazone]", "cell viability": "90.4%"}
{"COMPOUND": "COc1c2occc2c(OC)c2c(=O)cc(C)oc12 [khellin]", "cell viability": "94.9%"}

Provide reported cell viability for each item, in the same order as listed.
1. C=CC(=O)Nc1ccc2ncnc(Nc3cccc(Br)c3)c2c1
2. NC(=O)N/N=C/c1ccc([N+](=O)[O-])o1 [nitrofurazone]
3. CN1CCc2nc(C(=O)N[C@@H]3C[C@@H](C(=O)N(C)C)CC[C@@H]3NC(=O)C(=O)Nc3ccc(Cl)cn3)sc2C1 [edoxaban]

1. 92%
2. 98.8%
3. 94.4%

----------
Could you please report measured cell viability for the items listed next?
Tested on: Vero E6
Assay: cell viability relative to DMSO; higher = less toxic
Conditions: 72 h; 1000 nM
Give bare numbers, in %.

Sample records with cell viability:
{"COMPOUND": "Cc1cnc(-c2ccccc2C(C)C)nc1NCc1ccc(-n2ccnn2)cc1", "TESTED_TARGET": "Vero E6", "UNIT_OF_MEASURE": "%", "cell viability": 89.7}
{"COMPOUND": "COc1cc(/C=C/C(=O)CC(=O)/C=C/c2ccc(O)c(OC)c2)ccc1O", "TESTED_TARGET": "Vero E6", "UNIT_OF_MEASURE": "%", "cell viability": 98.2}

Each compound below has a recorded value; state its cell viability.
1. O=C1c2cccc3c2[C@H](CCC3)CN1[C@@H]1CN2CCC1CC2
2. CCC(=O)NC[C@H](Cc1ccc(OCCc2nc(-c3ccccc3)oc2C)cc1)N/C(C)=C\C(=O)c1ccc(C(F)(F)F)cc1
3. CC(=O)[C@@]1(O)CC[C@H]2[C@@H]3C[C@H](C)C4=CC(=O)CC[C@]4(C)[C@H]3CC[C@@]21C
4. Nc1ccc(F)cc1NC(=O)c1ccc(CNC(=O)/C=C/c2cccnc2)cc1 [chidamide]

1. 99.3
2. 89.3
3. 99
4. 100

Need cell viability for each of these compounds.
1. CCCCCOC(=O)Nc1nc(=O)n([C@@H]2O[C@H](C)[C@@H](O)[C@H]2O)cc1F
2. Cc1nc(N)sc1-c1ccnc(Nc2ccc(N3CCOCC3)cc2)n1

1. 95
2. 80.8

----------
Test system: A549-ACE2 infected with SARS-CoV-2
Experiment: cell count relative to DMSO; higher = less toxic
Details: 30 µM; 24 h
ASSAY_METRIC: cell count (%)
Answers are plain numbers, in %.

Recorded results for 3 compounds are shown here.
{"COMPOUND": "O=Nc1ccc(O)c2ncccc12 [NSC-3852]", "cell count [%]": 41}
{"COMPOUND": "CNCC[C@H](Oc1cccc2ccccc12)c1cccs1 [duloxetine]", "cell count [%]": 119}
{"COMPOUND": "OCCN1C[C@H](O)[C@@H](O)[C@H](O)[C@H]1CO [miglitol]", "cell count [%]": 89}

Pending compound:
Consider CN1CCCN(C(c2ccccc2)c2ccc(Cl)cc2)CC1 (centres undefined) [homochlorcyclizine] . Its measured cell count is 95

----------
Tested on: Vero E6
Assay: drug sensitivity score (DSS) for viability; higher = more toxic; extreme values may be limits of the assay
Conditions: 72 h
ASSAY_METRIC: drug sensitivity score
One number for each entry.

Below, each entry is followed by its recorded drug sensitivity score result.
{"MOLECULE": "O=C1[C@@H]2[C@H]3CC[C@H](C3)[C@@H]2C(=O)N1C[C@@H]1CCCC[C@H]1CN1CCN(c2nsc3ccccc23)CC1 [lurasidone]", "TESTED_TARGET": "Vero E6", "drug sensitivity score": 0}
{"MOLECULE": "CN(C)CCCC(=O)Nc1ccc(C(=O)Nc2cccc(Nc3ncc(Cl)c(-c4c[nH]c5ccccc45)n3)c2)cc1 [THZ1-R]", "TESTED_TARGET": "Vero E6", "drug sensitivity score": 0}
{"MOLECULE": "CNCC[C@H](Oc1cccc2ccccc12)c1cccs1 [duloxetine]", "TESTED_TARGET": "Vero E6", "drug sensitivity score": 0}
{"MOLECULE": "COc1cc2c(cc1OC(C)C)[C@H](c1ccc(Cl)cc1)N(c1ccc(N(C)C[C@H]3CC[C@H](N4CCN(C)C(=O)C4)CC3)cc1)C(=O)C2 [CGM097]", "TESTED_TARGET": "Vero E6", "drug sensitivity score": 5}
{"MOLECULE": "CCCCc1nc(Cl)c(CO)n1Cc1ccc(-c2ccccc2-c2nnn[nH]2)cc1 [losartan]", "TESTED_TARGET": "Vero E6", "drug sensitivity score": 0}

Dear colleague, could you send me drug sensitivity score for each of the items below? Thanks.
1. CC#C[C@]1(O)CC[C@H]2[C@@H]3CCC4=CC(=O)CCC4=C3[C@@H](c3ccc(N(C)C)cc3)C[C@@]21C [mifepristone]
2. CC1(C)S[C@@H]2[C@H](NC(=O)Cc3ccccc3)C(=O)N2[C@H]1C(=O)O [benzylpenicillin]
3. NC(=O)CNCCC(c1ccccc1)c1ccccc1 [N20C]
4. C=C1CC[C@H](O)C/C1=C/C=C1\CCC[C@]2(C)[C@@H]([C@H](C)CCCC(C)C)CC[C@@H]12 [cholecalciferol]
5. CC(C)[C@@H]1C(=O)N(S(C)(=O)=O)[C@@H]2CCN(C(=O)/C=C/CN3CCCCC3)[C@H]21
6. COc1ccc(/C=C/C(=O)O)cc1 [trans-4-methoxycinnamic-acid]
7. CCCn1c(=O)c(C)cn2nc(N)nc12
8. CCCCCCCC/C=C\CCCCCCCC(=O)NCCc1ccc(O)c(O)c1 [OLDA]

0
0
0
0
0
0
0
2

// each listed molecule needs a value for drug sensitivity score
1. Brc1c(Br)c(Br)c2[nH]nnc2c1Br [4,5,6,7-tetrabromobenzotriazole]
2. CCc1nc(N)nc(N)c1-c1ccc(Cl)cc1 [pyrimethamine]
3. CCC(c1ccccc1)c1c(O)c2ccccc2oc1=O (configuration not stated) [phenprocoumon]
4. COC(=O)[C@H](CC(C)C)NC(=O)c1ccc(NC[C@@H](N)CS)cc1-c1cccc2ccccc12 [GGTI-298]

0
2
0
0.9

----------
Test system: Calu-3
Test: cell viability relative to DMSO; higher = less toxic
Settings: 72 h; 10 nM
Assign cell viability to each entry below.
Give bare numbers, in %.

{"COMPOUND": "C[C@H](CCC(=O)NCCS(=O)(=O)O)[C@H]1CC[C@H]2[C@@H]3[C@H](O)C[C@@H]4C[C@H](O)CC[C@]4(C)[C@H]3C[C@H](O)[C@]12C [taurocholate]", "cell viability / %": 99}
{"COMPOUND": "CCn1cc(C(=O)O)c(=O)c2cc(F)c(N3CCNCC3)nc21", "cell viability / %": 103}
{"COMPOUND": "CCCC[C@H](NC(C)=O)C(=O)N[C@H]1CC(=O)NCCCC[C@@H](C(=O)O)NC(=O)[C@H](Cc2c[nH]c3ccccc23)NC(=O)[C@H](CCCNC(=N)N)NC(=O)[C@@H](Cc2ccccc2)NC(=O)[C@H](Cc2c[nH]cn2)NC1=O [bremelanotide]", "cell viability / %": 104}
{"COMPOUND": "Cc1ncc(CSSCc2cnc(C)c(O)c2CO)c(CO)c1O", "cell viability / %": 105}
{"COMPOUND": "Nc1ccn([C@@H]2O[C@@](CO)(CCl)[C@@H](O)[C@H]2F)c(=O)n1", "cell viability / %": 102}

Give measured cell viability for every item shown.
1. CC(C)NCCN(C(C)C)S(=O)(=O)c1ccc(Cl)cc1Cl
2. CCn1nc(C(=O)O)c(=O)c2cc3c(cc21)OCO3

[101, 98.6]

----------
Please go through the items and note down their cell viability.
Test system: Caco-2
Experiment: cell viability relative to DMSO; higher = less toxic
Conditions: 72 h; 10 nM
Answers are plain numbers, in %.

Example compounds with recorded cell viability:
{"COMPOUND": "Cc1ncc([N+](=O)[O-])n1CCO", "cell viability / %": 94.4}
{"COMPOUND": "CC1(C)Oc2ccc(C#N)cc2[C@H](N(Cc2ncc[nH]2)c2ccc(Cl)cc2)[C@H]1O", "cell viability / %": 101}
{"COMPOUND": "CC(C)[C@@H]1C(=O)N(S(C)(=O)=O)[C@@H]2CCN(C(=O)/C=C/CN3CCCCC3)[C@H]21", "cell viability / %": 94.3}
{"COMPOUND": "CCN1CCC[C@H]1CNC(=O)c1c(OC)ccc(Br)c1OC [remoxipride]", "cell viability / %": 104}

# cell viability (compound: O=C(NC1CCN(CCc2c[nH]c3ccccc23)CC1)c1ccccc1 ) is 98.2
